Data provenance: patent US20260116991A1

- target-system: T1, monkey GPC3-His protein (monkey)
- T1 construct: Bought recombinant protein; also called monkey GPC3 protein
- method-summary: ELISA, monkey GPC3-His coated;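 also: Plate-coated antigen at 1 µg/mL, antibody binding 2 h at 37 °C, detected with HRP-labeled secondary antibody and TMB, absorbance at 450 nm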
property-measured: OD450 at 0.1 nM (OD450)
A number alone suffices; assume OD450.

- binder: "F1.3.9 (antibody, human IgG1, kappa, V domains shown, Human-murine chimeric antibody) VH: QVQLQQPGTELVKPGASVKLSCKASGYTFTSYWIHWVKQRPGQGLEWIGNINPPNAGTNYNEKFKSKATLTVDKSSSTAYMQLSSLTSEDSAVYYCARGRWLLHDYWGQGTTLTVSS VL: DIQMTQSPASLSISVGETVTITCRASENIYSNLAWYQQKQGKSPQLLVYGTKNLAEGVPSRFSGSGSGTQYSLKINSLQSEDFGNYYCQHFWGTPYTFGGGTKLEILR"
  unit-tag: "OD450"
  OD450 at 0.1 nM: 0.56
- binder: "F3.38.7 (antibody, human IgG1, kappa, V domains shown, Human-murine chimeric antibody) VH: QVQLQQSGAELVRPGASVKLSCKASGYTFTDYEIHWVKQTPVLGLEWIGAIDPKTGNTAYNQKFMGKATLTADKSSTTAYMDLRSLTSEDSAVYYCTRYFSFAYWGQGTLVTVSA VL: DVLMTQTPLSLPVSLGDQASISCRSSQTFVHSNGNTYLQWYLQKPGQSPKLLIYKVSNRFSGVPDRFSGSGSGTDFTLKISRVEAEDLGVYYCFQGSHVPYTFGSGTKLEIKR"
  unit-tag: "OD450"
  OD450 at 0.1 nM: 1.69
- binder: "F1.110.24 (antibody, human IgG1, kappa, V domains shown, Human-murine chimeric antibody) VH: EVKLVESGGGLVQPGGSLKLSCAASGFTFSDFYMYWVRQTPEKRLEWVAFISNGGGSTYYPDTVKGRFTISRDNVKNTLYLQMSRLKSEDTAMYYCARPDTSWFAYWGQGSLVTVSA VL: DIQMTQTTSSLSASLGDRVTISCRASQDIDNYLNWYQQKPDGTVKVLISYTSRLHSGVPSRFSGSGSGTDYSLTISNLEQEDIATYFCQQGNTLPWTFGGGTKLEIKR"
  unit-tag: "OD450"
  OD450 at 0.1 nM: 0.29
- binder: "F2.169.2 (antibody, human IgG1, kappa, V domains shown, Human-murine chimeric antibody) VH: EVQLVETGGGLVQPKGSLKLSCAASGFSFNTNAMNWVRQAPGKGLEWVARIRSKSNNYATYYADSVKDRFTISRDDSQSMLYLQMNNLKTEDTAMYYCVRDGYYVLFAYWGQGTLVTVSA VL: DVLMTQTPLSLPVSLGDQASISCRFSQSIVNSNGNTYLEWFLQKPGQSPKLLIYKVSNRFSGVPDRFSGSGSGTDFTLKISRVEAEDLGVYYCFQGSHVPFTFGTGTKLEIKR"
  unit-tag: "OD450"
  OD450 at 0.1 nM: 1.36
- binder: "F1.62.9 (antibody, human IgG1, kappa, V domains shown, Human-murine chimeric antibody) VH: QVQLQQSDAELVKPGASVKISCKVSGYIFTDHTIHWMKQRPEQGLEWIGYIYPRDGSIKYNENFKGKATLTADKSSSATYMQLNSLTSEDSAVYFCARPIYYDYAYYFDYWGQGTTLTVSS VL: DVVMTQSPLSLPVSLGDQASISCRSRQSLVHSNGNTYLHWYLQKPGQSPKVLIYKVSNRFSGVPDRFSGSGSGTDFTLKISRVEAEDLGVYFCSQSTHVPYTFGGGTKLEIKR"
  unit-tag: "OD450"
  OD450 at 0.1 nM: 0.56

Recorded OD450 at 0.1 nM of F1.83.6 (antibody, human IgG1, kappa, V domains shown, Human-murine chimeric antibody) VH: QVQLQQSGPELVKPGASVKISCKASGYAFSSSWMNWVKQRPGKGLEWIGRIYPGDGDTNYNGRFKGKATLTVDKSSSTAYMQLSSLTSEDSAVYFCARGGVFTMALDHWGQGTTLTVSS VL: DIQMTQSPSSLSASLGGKVTITCKASQDINKYIAWYQHKPGKGPRLLIHYTSTLQPGIPSRFSGSGSGRDYSFSISNLEPEDIATYYCLQYDNLFTFGGGTKLEIKR , please.
0.43

Item: F2.23.8 (antibody, human IgG1, kappa, V domains shown, Human-murine chimeric antibody) VH: QVQLQQSGAELVRPGASVKLSCKASGYTFTDYEMHWVKQTPVHGLEWFGAIDPETGGTAYNQKFRAKATLTADKSSSTAYMELRSLTSEDSAVYYCTRFYSFAYWGQGTLVTVSA VL: DVVMTQTPLSLPVSLGDQASISCRSSQSLVHSNGNTYLQWYLQKPGQSPKLLIYKVSNRFSGVPDRFSGSGSGTDFTLKITRVEAEDLGVYFCSQSTHVPYTFGSGTKLEIKR
1.8

Queued: F1.145.22 (antibody, human IgG1, kappa, V domains shown, Human-murine chimeric antibody) VH: QVQLQQSGTDLARPGASVKLSCKASGYTFTSFGISWVKQRTGQGLEWIGEIYPRSGSPYYNEKFTGKATLTADKSSSTAYMELRSLTSEDSAVYFCAKDFGSSYVFDYWGQGTALTVSS VL: DIQMTQSPASLSASVGETVTITCRASENIYSYLTWYQQKQGKSPQLLVYNAKTLAEGVPSRFSGSGSGTQFSLKINSLQPEDFGTYYCQHHYGTPPTFGTGTKLDLKR
1.23

Please give the result for F1.41.17 (antibody, human IgG1, kappa, V domains shown, Human-murine chimeric antibody) VH: EVQLVESGGDSVKPGGSLKLSCAASGFTFSSYGMSWVRQTPDKRLEWVATINSGGSYTYYQDSVKGRFTISRDNAKNTLYLQMSSLKSEDTAIYYCVRHHYGSSYDYFDYWGQGTTLTVSS VL: DIVMTQAAPSVPVMPGESVSISCRSSKSLLHSNGNTHLYWFLQRPGQSPQLLIYRMSNLASGVPDRFSGSGSGTAFTLRISRVEAEDVGVYYCMQHLEYPLTFGAGTKLELKR too.
0.46

Let us now turn to F2.39.2 (antibody, human IgG1, kappa, V domains shown, Human-murine chimeric antibody) VH: QVQLQQSGAELVRPGASVKVSCKASGYTFTDYEMHWMKQTPVHGLEWIGANEPETGRSAYDQKFKGKATLTADKSSSTAYMELRSLTSEDSAVYYCTRFYSFAYWGQGTLVTVSA VL: DVVMTQTPLSLPVSLGDQASISCRSSQGLVHNNGNTYLHWYLQKPGQSPKLLIYKVSNRFSGVPDRFSGSGSGTDFTLKISRVEAEDLGVYFCSQNTHVPPTFGGGTKLEIKR
1.98
